Listing: pIC50 of selected compounds
# tested target: IDH2 R172K (Homo sapiens, UniProt P48735, R172K)
# Sequence (P48735 40-452 R172K): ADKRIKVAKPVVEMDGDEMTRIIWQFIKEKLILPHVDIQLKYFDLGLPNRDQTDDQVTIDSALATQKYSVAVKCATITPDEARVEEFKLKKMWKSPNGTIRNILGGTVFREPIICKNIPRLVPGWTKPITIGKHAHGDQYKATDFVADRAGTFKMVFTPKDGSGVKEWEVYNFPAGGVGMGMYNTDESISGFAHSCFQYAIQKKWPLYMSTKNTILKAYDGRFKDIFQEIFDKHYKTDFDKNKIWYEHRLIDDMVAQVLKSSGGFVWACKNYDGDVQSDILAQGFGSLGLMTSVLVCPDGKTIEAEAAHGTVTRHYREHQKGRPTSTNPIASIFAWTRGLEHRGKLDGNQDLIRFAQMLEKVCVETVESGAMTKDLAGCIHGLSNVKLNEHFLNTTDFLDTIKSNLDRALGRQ
# method summary: IDH2 R172K enzymatic assay (NADPH cofactor depletion, diaphorase/resazurin readout)
# test parameters: read-out: Enz R172K
pIC50: −log10 of the molar value.
assay endpoint: pIC50

smiles representation | tested target | assay endpoint | observed value
COc1ccc(F)c(-c2nc(Nc3ccnc(C(F)(F)F)c3)nc(NC3COC3)n2)c1 | IDH2 R172K (Homo sapiens, UniProt P48735, R172K) | pIC50 | 6.00 to 7.00
CC(C)Nc1nc(Nc2cccc(S(C)(=O)=O)c2)nc(-c2nc(C(F)(F)F)ccc2F)n1 | IDH2 R172K (Homo sapiens, UniProt P48735, R172K) | pIC50 | 6.00 to 7.00
CC(C)Nc1nc(Nc2cncc(Cl)c2)nc(-c2ccccc2)n1 | IDH2 R172K (Homo sapiens, UniProt P48735, R172K) | pIC50 | > 7.00
CC(C)Nc1nc(Nc2cccc(C(C)(C)O)c2)nc(-c2ccccc2)n1 | IDH2 R172K (Homo sapiens, UniProt P48735, R172K) | pIC50 | 5.00 to 6.00
CC(C)Nc1nc(Nc2ccnc(C(F)(F)F)c2)nc(-c2cccc(S(C)(=O)=O)c2)n1 | IDH2 R172K (Homo sapiens, UniProt P48735, R172K) | pIC50 | 6.00 to 7.00
CC(C)(C)Nc1nc(Nc2cc(Cl)cc(S(C)(=O)=O)c2)nc(-c2cccc(C(F)(F)F)n2)n1 | IDH2 R172K (Homo sapiens, UniProt P48735, R172K) | pIC50 | > 7.00
O[C@@H]1CC[C@@H](Nc2nc(Nc3ccccc3)nc(-c3ccccc3)n2)C1 | IDH2 R172K (Homo sapiens, UniProt P48735, R172K) | pIC50 | 5.00 to 6.00
FC1(F)CCC(Nc2nc(Nc3ccncc3)nc(-c3ccccc3)n2)CC1 | IDH2 R172K (Homo sapiens, UniProt P48735, R172K) | pIC50 | 6.00 to 7.00

---

Listing: IC50 of selected compounds
# tested target: IDH2 R172K (Homo sapiens, UniProt P48735, R172K)
# method summary: IDH2 R172K enzymatic assay (NADPH cofactor depletion, diaphorase/resazurin readout)
# test parameters: read-out: Enz R172K

smiles representation | IC50
CC1(Nc2nc(Nc3ccncc3)nc(-c3ccccc3)n2)CC1 | 1000 to 10000 nM
CC(C)(C)OC(=O)N1CCC(Nc2nc(Nc3ccccc3)nc(-c3ccccc3)n2)CC1 | 100 to 1000 nM
CC(C)(C)CNc1nc(Nc2ccnc(C(F)(F)F)c2)nc(-c2ccccn2)n1 | < 100 nM
Cc1ccccc1-c1nc(Nc2ccccc2)nc(NC(C)C)n1 | 100 to 1000 nM
CC(C)(C)Nc1nc(Nc2ccnc(C3(C#N)CC3)c2)nc(-c2cccc(C(F)(F)F)n2)n1 | < 100 nM
CC(C)(O)CNc1nc(Nc2ccnc(F)c2)nc(-c2ccccc2F)n1 | 1000 to 10000 nM
CC(F)(F)c1cc(Nc2nc(NCC3CC3)nc(-c3cccc(C(C)(F)F)n3)n2)ccn1 | < 100 nM
CC(C)(O)CNc1nc(Nc2ccnc(C(F)(F)F)c2)nc(-c2cccc(C(F)(F)F)n2)n1 | 100 to 1000 nM

---

# tested target: IDH2 R172K (Homo sapiens, UniProt P48735, R172K)
# Sequence (P48735 40-452 R172K): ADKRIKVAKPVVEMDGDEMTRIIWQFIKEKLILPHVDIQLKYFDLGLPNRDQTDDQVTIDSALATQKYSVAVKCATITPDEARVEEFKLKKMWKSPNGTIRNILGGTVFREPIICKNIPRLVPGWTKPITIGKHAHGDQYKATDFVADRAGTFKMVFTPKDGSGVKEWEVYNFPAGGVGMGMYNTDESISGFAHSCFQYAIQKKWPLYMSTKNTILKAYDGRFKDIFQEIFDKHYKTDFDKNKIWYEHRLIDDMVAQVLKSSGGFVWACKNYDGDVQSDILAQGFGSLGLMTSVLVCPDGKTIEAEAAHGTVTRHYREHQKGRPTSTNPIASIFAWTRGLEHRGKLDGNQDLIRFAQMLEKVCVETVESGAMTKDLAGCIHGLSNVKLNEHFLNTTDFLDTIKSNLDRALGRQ
# method summary: IDH2 R172K enzymatic assay (NADPH cofactor depletion, diaphorase/resazurin readout)
# test parameters: read-out: Enz R172K

compound | IC50
CC(C)(C)Nc1nc(Nc2ccnc(C(F)(F)F)c2)nc(-c2cccc(N)n2)n1 [Compound 695] | < 100 nM
CC(C)Nc1nc(Nc2ccccc2)nc(-c2ccccc2C#N)n1 [Compound 139] | 1000 to 10000 nM
CC(C)Nc1nc(Nc2ccc(F)nc2)nc(-c2cccc(N)n2)n1 [Compound 462] | 100 to 1000 nM
FC1(F)CC(Nc2nc(Nc3ccncc3)nc(-c3ccccc3)n2)C1 [Compound 253] | 100 to 1000 nM
CC(C)(C)CNc1nc(Nc2cncc(C#N)c2)nc(-c2cccc(Cl)n2)n1 [Compound 498] | 1000 to 10000 nM

---

Listing: IC50 of selected compounds
# tested target: IDH2 R172K (Homo sapiens, UniProt P48735, R172K)
# method summary: IDH2 R172K enzymatic assay (NADPH cofactor depletion, diaphorase/resazurin readout)
# test parameters: read-out: Enz R172K

compound | IC50
Fc1ccc(Nc2nc(NC3COC3)nc(-c3ccccc3F)n2)cn1 | 1000 to 10000 nM
CC(C)Nc1nc(Nc2cccc(F)c2)nc(-c2nc(C(F)(F)F)cs2)n1 | < 100 nM
CC(C)Nc1nc(Nc2cccc(S(=O)(=O)NC3CC3)c2)nc(-c2ccccc2)n1 | 100 to 1000 nM
Cc1cc(Nc2nc(NC(C)C)nc(-c3cccc(C(F)(F)F)n3)n2)cnn1 | 1000 to 10000 nM
COc1cccc(-c2nc(Nc3ccccc3)nc(NC(C)C)n2)c1 | 100 to 1000 nM
CC(C)(C)Nc1nc(Nc2cc(F)cc(F)c2)nc(-c2cccc(C(C)(F)F)n2)n1 | < 100 nM
CC(C)Nc1nc(Nc2cncc(C(F)(F)F)c2)nc(-c2cccc(N)n2)n1 | < 100 nM
CC1(CNc2nc(Nc3ccnc(C(F)(F)F)c3)nc(-c3cccc(C(F)(F)F)n3)n2)CCCO1 (stereo not drawn) | < 100 nM
CC1(CNc2nc(Nc3ccncc3)nc(-c3ccccc3)n2)CCCO1 (stereo not drawn) | 1000 to 10000 nM
CC(C)Nc1nc(Nc2cccc(S(C)(=O)=O)c2)nc(-c2cccc(C(F)(F)F)n2)n1 | 100 to 1000 nM
CC(C)Nc1nc(Nc2ccc(F)cc2)nc(-c2ccccc2)n1 | 100 to 1000 nM
CC(C)Nc1nc(Nc2ccnc(C(F)(F)F)c2)nc(-c2cc(O)ccc2F)n1 | < 100 nM
CC(C)Nc1nc(Nc2cncc(F)c2)nc(-c2ccccc2F)n1 | < 100 nM
CC(C)Nc1nc(Nc2ccccc2)nc(-c2ccccc2Cl)n1 | < 100 nM
CC(C)Nc1nc(Nc2ccccc2)nc(-c2cccc(Cl)c2)n1 | 100 to 1000 nM
CC(C)Nc1nc(Nc2cccc(S(=O)(=O)NC(C)(C)C)c2)nc(-c2ccccc2)n1 | 1000 to 10000 nM
CC1CC1Nc1nc(Nc2ccnc(C(F)(F)F)c2)nc(-c2ccccn2)n1 (stereo not drawn) | < 100 nM
COCc1cccc(Nc2nc(NC(C)C)nc(-c3ccccc3)n2)c1 | 100 to 1000 nM

---

Listing: pIC50 of selected compounds
# tested target: IDH2 R172K (Homo sapiens, UniProt P48735, R172K)
# method summary: IDH2 R172K enzymatic assay (NADPH cofactor depletion, diaphorase/resazurin readout)
# test parameters: read-out: Enz R172K
pIC50: −log10 of the molar value.
assay endpoint: pIC50

compound | tested target | observed value
CC(C)Nc1nc(Nc2cccc(S(=O)(=O)N(C)C)c2)nc(-c2ccccc2)n1 [Compound 177] | IDH2 R172K (Homo sapiens, UniProt P48735, R172K) | 6.00 to 7.00
CC(F)(F)c1cccc(-c2nc(NCC3CC3)nc(Nc3cc(F)cc(S(C)(=O)=O)c3)n2)n1 [Compound 612] | IDH2 R172K (Homo sapiens, UniProt P48735, R172K) | > 7.00
CC(C)Nc1nc(Nc2cc(F)cc(F)c2)nc(-c2ccc(N)nc2)n1 [Compound 645] | IDH2 R172K (Homo sapiens, UniProt P48735, R172K) | 6.00 to 7.00
CC(C)Nc1nc(Nc2cncc(C(F)(F)F)c2)nc(-c2ccccc2F)n1 [Compound 372] | IDH2 R172K (Homo sapiens, UniProt P48735, R172K) | > 7.00
